Assayed System: HLA-A*31:01
Protocol: IEDB peptide-MHC binding, purified MHC/direct/fluorescence; filed as Kd, often an IC50 or EC50 that approximates it; bounds were set here for any values at or beyond the usual limits of such assays
Condition Context: source organism: Orthomarburgvirus marburgense
pKd: −log10 of the molar value.
Attribute Measured: pKd

Answer briefly: pKd recorded on HLA-A*31:01 for LEHGLYPQL
≤ 4.70

* * *

Assayed System: HLA-B*27:05
Protocol: IEDB peptide-MHC binding, purified MHC/direct/fluorescence; filed as Kd, often an IC50 or EC50 that approximates it; bounds were set here for any values at or beyond the usual limits of such assays
Condition Context: source organism: Influenza A virus (A/duck/Vietnam/15/2003(H5N1))
pKd: −log10 of the molar value.
Attribute Measured: pKd

Answer briefly: pKd recorded on HLA-B*27:05 for SHEGEGIPL
≤ 4.70

* * *

Assayed System: HLA-A*31:01
Protocol: IEDB peptide-MHC binding, purified MHC/direct/fluorescence; filed as Kd, often an IC50 or EC50 that approximates it; bounds were set here for any values at or beyond the usual limits of such assays
Condition Context: source organism: Burkholderia mallei
Attribute Measured: Kd (µM)
Enter your answer as a number in µM; do not include the unit.

For the sequence RRSLLAHVR , give its measured Kd value.
5.4

* * *

Assayed System: HLA-A*01:01
Protocol: IEDB peptide-MHC binding, purified MHC/competitive/fluorescence; filed as Kd, often an IC50 or EC50 that approximates it; bounds were set here for any values at or beyond the usual limits of such assays
Condition Context: source organism: Human immunodeficiency virus 1
Attribute Measured: Kd

For the sequence RSLYNTVATLY , give its measured Kd value.
≥ 20 µM

* * *

Assayed System: HLA-B*58:01
Protocol: IEDB peptide-MHC binding, purified MHC/direct/fluorescence; filed as Kd, often an IC50 or EC50 that approximates it; bounds were set here for any values at or beyond the usual limits of such assays
Condition Context: source organism: Pseudomonas viridiflava
Attribute Measured: Kd

For the sequence DYDQRDYGF , give its measured Kd value.
≥ 20 µM

* * *

Assayed System: HLA-B*08:01
Protocol: IEDB peptide-MHC binding, purified MHC/competitive/fluorescence; bounds were set here for any values at or beyond the usual limits of such assays
Condition Context: source organism: Variola virus
pIC50: −log10 of the molar value.
Attribute Measured: pIC50

For the sequence KHHTKIDSM , give its measured pIC50 value.
≤ 3.68

* * *

Assayed System: HLA-A*26:01
Protocol: IEDB peptide-MHC binding, purified MHC/competitive/fluorescence; filed as Kd, often an IC50 or EC50 that approximates it; bounds were set here for any values at or beyond the usual limits of such assays
Condition Context: source organism: Vibrio parahaemolyticus RIMD 2210633
Attribute Measured: Kd

For the sequence GTVPTDNPF , give its measured Kd value.
≥ 20 µM

* * *

Assayed System: HLA-A*11:01
Protocol: IEDB peptide-MHC binding, purified MHC/competitive/radioactivity; filed as Kd, often an IC50 or EC50 that approximates it; bounds were set here for any values at or beyond the usual limits of such assays
Condition Context: source organism: SARS coronavirus Tor2
Attribute Measured: Kd (nM)
Enter your answer as a number in nM; do not include the unit.

QQWIQFMMSR: 7800
KQIANQFNK: 138
YTNEIIGYK: 2.56
FLAVFQSATK: 1610
RVPRNLTLSK: 8.33

For the sequence MQGAVDINR , give its measured Kd value.
631

For the sequence VFGSTMNNK , give its measured Kd value.
2510

For the sequence SMQGAVDINR , give its measured Kd value.
1160

For the sequence ATSTRHPSK , give its measured Kd value.
9.8

Data origin, for the record: the Immune Epitope Database (IEDB)
